- Test system: HS 578T breast
- Assay: NCI tumour cell line growth inhibition, 48 h
Below, each of the compounds is paired with its reported TGI value.

| Compound | TGI |
| --- | --- |
| Cc1[nH]c2ncn(/N=C/c3ccccc3O)c(=N)c2c1Cc1ccccc1 | > 100 µM |

Ask: Query: TGI; subject: CO[C@H](C(=O)[C@@H](O)[C@@H](C)O)[C@@H]1Cc2cc3cc(O[C@H]4C[C@@H](O[C@H]5C[C@@H](O)[C@H](O)C(C)O5)[C@H](O)C(C)O4)c(C)c(O)c3c(O)c2C(=O)[C@H]1O[C@H]1C[C@@H](O[C@H]2C[C@@H](O[C@H]3C[C@@H](OC)[C@H](O)C(C)O3)[C@@H](O)C(C)O2)C(O)(O)C(C)O1 (some centres not stated)
Result: > 7.66 µM

Ask: Fill blank: measured TGI of the compound "O=C(c1ccc2ccccc2c1O)N1CCCCC1" is ____.
Result: > 100 µM

Ask: What does the record list as TGI for CN1C/C(=C\c2cccs2)C2=NC(=S)NC(c3cccs3)C2C1 (configuration not stated) ?
Result: > 100 µM

Ask: Please report the recorded TGI for "C=C(C)[C@@H]1CC[C@]2(C(=O)O)CC[C@]3(C)[C@H](CC[C@@H]4[C@@]5(C)CC(=O)C(C)(C)[C@@H]5CC[C@]43C)[C@@H]12" .
Result: > 25 µM

Ask: Consider the compound shown here: Cc1[nH]ncc1-c1cc2nc(C3CC4CCN3CC4)[nH]c(=O)c2s1 (configuration not stated) What is its recorded TGI?
Result: > 100 µM

---

- System: MOLT-4 leukemia
- Assay: NCI tumour cell line growth inhibition, 48 h
Experimental Endpoint: TGI

Take a look at these entries with their results.
| Molecule | Value Observed |
| --- | --- |
| Cc1c2cc[nH]c(=O)c2c(C)c2c1[nH]c1cc(OCCN3CCN(C)CC3)ccc12 | 5.51 µM |
| CN(C)CC(/C(Cc1ccccc1)=N\NC(=O)C[n+]1ccccc1)c1ccccc1 (stereo unspecified) | > 100 µM |
| COC(=O)c1c2c(cc3c1CC1(Cc4ccccc4C1=O)C3)CCC2 (stereo unspecified) | 47.4 µM |
| C#CCC[C@@H]1O[C@@]1(C)CC/C=C(\C)CC/C=C/C=O | 52.9 µM |
| COC(=O)[C@H](Cc1ccccc1)NC(=O)c1ccc(CNC(=O)/C=C/c2ccc(-c3ccccc3)cc2)cc1 | > 100 µM |

Ask: Any idea what its TGI is? The molecule is CCC(C)[C@@H](NCc1ccccc1)[C@H](OCc1ccccc1)[C@@H]1COC(C)(C)O1 (stereo partly specified)
Result: 62.3 µM

Ask: Sample "Cc1nc2ccc(CN(C)c3ccc(C(=O)N[C@@H](CCC(=O)O)C(=O)O)s3)cc2c(=O)[nH]1" — what was its TGI?
Result: > 100 µM

Ask: # lookup: TGI of "COc1ccc(/C=C2\CN(C)Cc3c2nc(N)nc3-c2ccc(OC)cc2)cc1"
Result: > 100 µM

Ask: # query: TGI of entry "CC(C)(C)OC(=O)CN1CCNCCNCC1"
Result: > 100 µM

Ask: Value lookup for TGI; key = "c1ccc(SC2(Sc3ccccc3)CCCC2)cc1"
Result: > 100 µM

Ask: Which TGI value is on record for "O=C(CC1=Nc2nnc(-c3nnc4n3C(=O)C(CC(=O)c3cccnc3)=N4)n2C1=O)c1cccnc1" ?
Result: > 100 µM

Ask: What does the data say about its TGI? Entry: "Cc1nc2sccn2c1/C=C1/C(=O)Nc2ccccc21"
Result: > 31.6 µM

Ask: Consider the molecule shown here: "CCOC(=O)CCCn1nnc(C(=O)OCC)c1C(=O)OCC" What is its recorded TGI?
Result: > 100 µM

Ask: What measured TGI goes with CC12CC3C(CC1SCC(=O)O2)C3(C)C (stereo unspecified) ?
Result: > 100 µM

Ask: Report TGI for "O=C(Cc1ccccc1)NCCc1ccc(O)c(O)c1" please.
Result: > 100 µM

Ask: Field request: TGI | item: CCOc1ccc2nc(NC(=O)C(=O)C(C(=O)c3ccccc3-c3ccccc3)C3OC(=O)c4ccccc43)sc2c1 (stereo unspecified)
Result: 99.6 µM

Ask: Fill blank: measured TGI of the molecule "O=C(CP(c1ccccc1)c1ccccc1)c1cccc(C(=O)CP(c2ccccc2)c2ccccc2)c1" is ____.
Result: 48 µM

Ask: Which TGI is listed for "CCOc1cc2c(cc1O)/C(=N\N)C[C@@H]1[C@@H]2CC[C@]2(C)[C@@H](O)CC[C@@H]12" ?
Result: > 100 µM

Ask: Suppose we examine the molecule "O=S(=O)(c1ccc(Br)cc1)n1c2ccc(Br)cc2c2nc3ccccc3nc21" ; what TGI value has been reported?
Result: > 100 µM

Ask: Quick one: TGI of COCOc1ccc(C(=O)C(C)c2ccc(OCOC)cc2OCOC)c(O)c1 (stereo unspecified) ?
Result: > 100 µM

Ask: Which TGI value is on record for "COc1cc(/C(Cl)=C/C=C/C(=O)c2c(C)[n+]([O-])c3ccc(Cl)cc3[n+]2[O-])cc(OC)c1OC" ?
Result: 3.56 µM

Ask: Query (molecule): "COc1ccc(C#Cc2ccccc2C#CCCCCO)cc1" ; field requested: TGI
Result: 39.2 µM

Ask: Reported TGI, molecule "O=c1cc(CNC2CCCC2)[nH]c(=O)[nH]1" : ____
Result: > 100 µM

Ask: // TGI lookup, key: "CN(C)CCCOc1ccccc1NC1=C(Cl)C(=O)C(Nc2ccccc2OCCCN(C)C)=C(Cl)C1=O"
Result: 0.578 µM

Ask: Consider the molecule "O=C1OC(=O)c2c1c(-c1ccccc1)cn2-c1ccc(Cl)cc1" and give its measured TGI.
Result: > 100 µM

Where these numbers come from: PubChem BioAssay (NCI)
